assay.target: human kinase Mps-1 (Homo sapiens)
Construct: N-terminally GST-tagged human full length recombinant Mps-1 kinase; GST (N)
Sequence (P33981 1-857): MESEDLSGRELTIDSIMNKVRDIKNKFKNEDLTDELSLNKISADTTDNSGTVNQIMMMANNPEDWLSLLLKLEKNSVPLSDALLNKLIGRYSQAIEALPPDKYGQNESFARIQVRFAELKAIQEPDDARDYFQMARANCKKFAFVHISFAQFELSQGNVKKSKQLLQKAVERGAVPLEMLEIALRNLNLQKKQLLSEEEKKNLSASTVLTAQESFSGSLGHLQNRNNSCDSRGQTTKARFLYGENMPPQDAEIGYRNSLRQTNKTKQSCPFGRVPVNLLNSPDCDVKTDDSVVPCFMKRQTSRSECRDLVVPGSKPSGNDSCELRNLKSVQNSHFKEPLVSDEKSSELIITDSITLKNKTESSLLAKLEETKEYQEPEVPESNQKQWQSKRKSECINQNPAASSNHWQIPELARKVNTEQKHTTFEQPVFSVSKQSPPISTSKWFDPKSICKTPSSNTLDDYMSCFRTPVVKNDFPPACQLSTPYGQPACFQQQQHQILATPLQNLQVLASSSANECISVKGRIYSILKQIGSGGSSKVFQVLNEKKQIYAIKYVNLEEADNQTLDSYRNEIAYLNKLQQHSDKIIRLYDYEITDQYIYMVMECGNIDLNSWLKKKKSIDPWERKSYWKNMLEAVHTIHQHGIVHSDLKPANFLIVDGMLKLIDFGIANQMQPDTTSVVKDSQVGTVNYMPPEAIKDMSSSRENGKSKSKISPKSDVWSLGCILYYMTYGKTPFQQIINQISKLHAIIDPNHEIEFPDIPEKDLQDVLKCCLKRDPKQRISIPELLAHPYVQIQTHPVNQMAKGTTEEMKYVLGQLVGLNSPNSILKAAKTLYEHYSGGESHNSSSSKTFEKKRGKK
test.protocol: Mps-1 kinase assay (TR-FRET)
condition.details: N-terminally GST-tagged human full length recombinant Mps-1; 10 μM ATP; 1 μM peptide substrate; 60 min at 22° C.
recorded.metric: IC50 (nM)

Check out these entries, answers already filled in.
compound	IC50 / nM
CNC(=O)c1ccc(-c2cnc3c(NCCC(F)(F)F)cc(-c4ccc(C(=O)NC5(C)CC5)c(C)c4)cn23)cc1C	15.3
C/C=C/c1cc(NCCC(F)(F)F)c2ncc(-c3ccc(C(=O)NC4(C#N)CC4)c(C)c3)n2c1	59.4
COc1c(F)cccc1Oc1cc(NCCC(F)(F)F)c2ncc(-c3ccc(C(=O)NC4CC4)c(C)c3)n2c1	3.2
COc1ccc(Oc2cc(NCCC(F)(F)F)c3ncc(-c4ccc(C(=O)N[C@H]5C[C@@H]5C)c(C)c4)n3c2)cc1F (relative stereo)	2

I. C=Cc1cc(NCCC(F)(F)F)c2ncc(-c3ccc(C(=O)N[C@H]4C[C@@H]4C)c(C)c3)n2c1 (relative stereo)
II. CNC(=O)c1ccc(-c2cnc3c(NCCC(F)(F)F)cc(/C=C\CO)cn23)cc1C
III. CNC(=O)c1ccc(-c2cnc3c(NCCC(F)(F)F)cc(-c4ccccc4OC)cn23)cc1C
Please rank these compounds by IC50 in descending order. The labels, placed in the requested order, form the answer.
II, I, III
(II: 54.7 nM, I: 29.4 nM, III: 19.8 nM)

1. C#Cc1cc(NCCC(F)(F)F)c2ncc(-c3ccc(C(=O)NC)c(C)c3)n2c1
2. Cc1cc(-c2cnc3c(NCCC(F)(F)F)cc(C(C)O)cn23)ccc1C(=O)NC1CC1 (racemic)
Short answer wanted: higher IC50, 1 or 2 ? # respond with the chosen item's label
1

P. COc1cccc(Oc2cc(NCCC(F)(F)F)c3ncc(-c4ccc(C(=O)NC5CC5)c(C)c4)n3c2)c1
Q. CCc1cc(NCCC(F)(F)F)c2ncc(-c3ccc(C(=O)NC4CC4)c(C)c3)n2c1
R. COCCNc1cc(Oc2cccc(F)c2)cn2c(-c3ccc(C(=O)NC4CC4)c(C)c3)cnc12
List the 3 entries from lowest IC50 to highest IC50 value. Response format: the labels, sorted as the prompt asks.
P, Q, R

====

assay.target: human kinase Mps-1 (Homo sapiens)
Construct: N-terminally GST-tagged human full length recombinant Mps-1 kinase; GST (N)
test.protocol: Mps-1 kinase assay (TR-FRET)
condition.details: N-terminally GST-tagged human full length recombinant Mps-1; 10 μM ATP; 1 μM peptide substrate; 60 min at 22° C.
pIC50: −log10 of the molar value.
recorded.metric: pIC50

Below are worked cases with known answers.
compound	pIC50
CNC(=O)c1ccc(-c2cnc3c(NCCC(F)(F)F)cc(C(C)O)cn23)cc1C (racemic)	6.63
COc1ccc(Oc2cc(NCC3CCOCC3)c3ncc(-c4ccc(C(=O)NC5CC5)c(C)c4)n3c2)cc1F	9.10
Cc1cc(-c2cnc3c(NCCC(F)(F)F)cc(Oc4cccc(Cl)c4)cn23)ccc1C(=O)NC1CC1F (single isomer, unassigned) [Example 39 (ent.-A or A)]	8.31

I. Cc1cc(-c2cnc3c(NCCC(F)(F)F)cc(Oc4ccc(O)c(F)c4)cn23)ccc1C(=O)NC1CC1
II. CCNC(=O)c1ccc(-c2cnc3c(NCCC(F)(F)F)cc(Oc4ccccc4)cn23)cc1C
III. Cc1cc(-c2cnc3c(NCC(F)F)cc(Oc4cccc(F)c4F)cn23)ccc1C(=O)NC1CC1
Which order do these items take when sorted by rising pIC50? List them. Answer by listing the labels in the requested order.
II, III, I
(II: 8.64, III: 8.89, I: 9.30)

I. C=Cc1cc(NCCC(F)(F)F)c2ncc(-c3ccc(C(=O)NC4(C#N)CC4)c(C)c3)n2c1
II. Cc1cc(-c2cnc3c(NCCC(F)(F)F)cc(CCCO)cn23)ccc1C(=O)NC1CC1
Field: lower pIC50 | Options: I / II // caller expects the label of the chosen entry
I

a. Cc1cc(-c2cnc3c(NCCC(F)(F)F)cc(Oc4ccc(O)cc4)cn23)ccc1C(=O)NC1CC1
b. COc1cccc(Oc2cc(NCCC(F)(F)F)c3ncc(-c4ccc(C(=O)NC5(C#N)CC5)c(C)c4)n3c2)c1
c. Cc1cc(-c2cnc3c(NCCC(F)(F)F)cc(Oc4cccc(F)c4)cn23)ccc1C(=O)N[C@@H]1C[C@H]1C (relative stereo)
d. Cc1cc(-c2cnc3c(NCCC(F)(F)F)cc(Oc4ccc(OC(F)(F)F)c(F)c4)cn23)ccc1C(=O)NC1(C)CC1
Reorder: pIC50, max to min. Return value: ordered labels per request.
a, c, b, d

A. Cc1cc(-c2cnc3c(NCCC(F)(F)F)cc(-c4ccncc4)cn23)ccc1C(=O)NC1(C)CC1
B. Cc1ccc(F)cc1Oc1cc(NCCC(F)(F)F)c2ncc(-c3ccc(C(=O)NC4CC4)c(C)c3)n2c1
Could you tell me which of A and B has the lower pIC50 reading? Respond with the label that goes with your answer.
A

====

assay.target: human kinase Mps-1 (Homo sapiens, UniProt P33981)
Construct: N-terminally GST-tagged human full length recombinant Mps-1 kinase; GST (N)
test.protocol: Mps-1 kinase assay (TR-FRET)
condition.details: N-terminally GST-tagged human full length recombinant Mps-1; 10 μM ATP; 1 μM peptide substrate; 60 min at 22° C.
recorded.metric: IC50 (nM)

molecule	numeric.value
Cc1cc(-c2cnc3c(NCCC(F)(F)F)cc(Oc4ccccc4)cn23)ccc1C(=O)NC1CC1	0.7
Cc1cc(-c2cc(NCCC(F)(F)F)c3ncc(-c4ccc(C(=O)NC5CC5)c(C)c4)n3c2)ccc1C(N)=O	0.5
CCc1cc(NCCC(F)(F)F)c2ncc(-c3ccc(C(=O)NC4(C#N)CC4)c(C)c3)n2c1	156
Cc1cc(-c2cnc3c(NCCC(F)(F)F)cc(Oc4cccc(Cl)c4)cn23)ccc1C(=O)NC1CC1	1.3
Cc1ccc(F)cc1Oc1cc(NCCC(F)(F)F)c2ncc(-c3ccc(C(=O)NC4CCC4)c(C)c3)n2c1	7.6

a. CCNC(=O)c1ccc(-c2cnc3c(NCCC(F)(F)F)cc(Oc4cccc(OC(F)(F)F)c4)cn23)cc1C
b. CNC(=O)c1ccc(-c2cnc3c(NCC4CCOCC4)cc(Oc4ccc(OC)c(F)c4)cn23)cc1C
c. Cc1cc(-c2cc(NCC3CCOCC3)c3ncc(-c4ccc(C(=O)NC5CC5)c(C)c4)n3c2)ccc1C(=O)NC1CC1
Put the items in order so that reported IC50 rises from first to last. Labels, ranked as asked.
c, b, a
(c: 0.4 nM, b: 1.5 nM, a: 51 nM)

====

assay.target: human kinase Mps-1 (Homo sapiens)
Construct: N-terminally GST-tagged human full length recombinant Mps-1 kinase; GST (N); purchased Invitrogen, Karslruhe, Germany PV4071
test.protocol: Mps-1 kinase assay (TR-FRET)
Assay type: biochemical
condition.details: N-terminally GST-tagged human full length recombinant Mps-1; 10 μM ATP; 1 μM peptide substrate; 60 min at 22° C.
recorded.metric: IC50 (nM)

compound	IC50 / nM
CNC(=O)c1ccc(-c2cnc3c(NCCC(F)(F)F)cc(Oc4cccc(Cl)c4)cn23)cc1C	6.2
Cc1cc(-c2cnc3c(NCCC(F)(F)F)cc(Sc4cccc(F)c4)cn23)ccc1C(=O)NC1CC1	0.8
Cc1cc(-c2cnc3c(NCCC(F)(F)F)cc(Oc4cccc(F)c4F)cn23)ccc1C(=O)NC1(C)CC1	1.8

A. Cc1cc(-c2cnc3c(NCCC(F)(F)F)cc(Sc4ccccc4N)cn23)ccc1C(=O)NC1CC1
B. CCNC(=O)c1ccc(-c2cnc3c(NCCC(F)(F)F)cc(Oc4cccc(F)c4)cn23)cc1C
Which entry shows the lesser value of IC50 here, A or B ? Answer = label.
A
